So I've got a bunch of binders here, and I need their T1/2 values.
- TARGET: T1, Dimeric Human Ang-2FD conjugated to human IgG1 (human)
- T1 construct: also called Human Ang-2FD-hFc; hAng-2FD-hFc
- T1 sequence (chain, as listed by the source limits assumed): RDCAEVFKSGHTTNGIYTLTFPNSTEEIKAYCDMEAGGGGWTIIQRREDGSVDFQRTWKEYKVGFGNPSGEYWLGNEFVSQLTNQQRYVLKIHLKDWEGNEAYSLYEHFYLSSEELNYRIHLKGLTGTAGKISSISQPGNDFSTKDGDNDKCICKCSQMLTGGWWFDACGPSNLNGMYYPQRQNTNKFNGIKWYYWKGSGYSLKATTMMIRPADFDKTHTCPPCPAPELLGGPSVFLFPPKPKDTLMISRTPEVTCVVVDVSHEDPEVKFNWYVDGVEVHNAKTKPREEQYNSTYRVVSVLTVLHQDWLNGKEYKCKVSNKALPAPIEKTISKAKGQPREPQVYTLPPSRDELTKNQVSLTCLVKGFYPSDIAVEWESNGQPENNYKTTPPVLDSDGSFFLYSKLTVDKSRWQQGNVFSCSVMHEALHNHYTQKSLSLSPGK
- ASSAY_REMARKS: SPR, captured Ab, RT
Give the value, in units of min, as a plain number.

Quick check: T1/2 of H1M724N (antibody, V domains shown) VH: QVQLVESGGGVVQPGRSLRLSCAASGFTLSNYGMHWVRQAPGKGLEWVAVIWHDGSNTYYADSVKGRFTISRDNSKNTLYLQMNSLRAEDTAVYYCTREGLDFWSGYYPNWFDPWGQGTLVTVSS VL: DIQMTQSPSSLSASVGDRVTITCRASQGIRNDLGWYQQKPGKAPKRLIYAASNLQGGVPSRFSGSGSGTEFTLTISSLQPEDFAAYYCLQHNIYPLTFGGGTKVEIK ?
42.7

Also need H1H732N (antibody, V domains shown) VH: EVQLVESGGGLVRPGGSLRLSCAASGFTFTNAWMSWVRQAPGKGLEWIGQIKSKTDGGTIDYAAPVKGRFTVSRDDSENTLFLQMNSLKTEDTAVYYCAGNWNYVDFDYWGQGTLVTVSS VL: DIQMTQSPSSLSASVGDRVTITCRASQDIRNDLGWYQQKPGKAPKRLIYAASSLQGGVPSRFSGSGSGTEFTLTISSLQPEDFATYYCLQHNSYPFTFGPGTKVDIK , thanks.
57

Also need H1M728N (antibody, V domains shown) VH: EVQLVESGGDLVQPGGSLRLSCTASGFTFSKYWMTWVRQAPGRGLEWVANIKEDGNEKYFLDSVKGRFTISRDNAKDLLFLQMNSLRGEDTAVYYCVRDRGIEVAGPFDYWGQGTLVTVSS VL: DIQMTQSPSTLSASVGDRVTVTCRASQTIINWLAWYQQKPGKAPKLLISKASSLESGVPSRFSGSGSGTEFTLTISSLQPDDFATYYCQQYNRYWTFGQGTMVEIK , thanks.
58.4

Also need H2M744N (antibody, V domains shown) VH: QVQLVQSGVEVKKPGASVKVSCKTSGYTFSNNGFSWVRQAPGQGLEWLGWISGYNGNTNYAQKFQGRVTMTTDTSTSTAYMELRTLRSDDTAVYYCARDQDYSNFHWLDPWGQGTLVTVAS VL: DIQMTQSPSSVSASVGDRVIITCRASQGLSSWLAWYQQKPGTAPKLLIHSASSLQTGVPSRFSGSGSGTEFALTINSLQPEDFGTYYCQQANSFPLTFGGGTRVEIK , thanks.
109

Also need H2M750N (antibody, V domains shown) VH: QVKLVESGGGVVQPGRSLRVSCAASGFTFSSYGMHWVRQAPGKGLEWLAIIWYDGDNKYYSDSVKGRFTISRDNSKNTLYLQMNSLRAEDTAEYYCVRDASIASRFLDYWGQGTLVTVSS VL: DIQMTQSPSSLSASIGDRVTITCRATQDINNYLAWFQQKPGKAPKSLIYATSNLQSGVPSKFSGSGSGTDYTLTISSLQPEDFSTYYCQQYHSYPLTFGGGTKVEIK , thanks.
32.2

Also need H1M732N (antibody, V domains shown) VH: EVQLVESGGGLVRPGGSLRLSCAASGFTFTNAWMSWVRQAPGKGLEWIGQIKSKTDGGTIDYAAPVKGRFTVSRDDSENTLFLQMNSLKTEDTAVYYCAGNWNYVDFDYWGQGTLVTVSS VL: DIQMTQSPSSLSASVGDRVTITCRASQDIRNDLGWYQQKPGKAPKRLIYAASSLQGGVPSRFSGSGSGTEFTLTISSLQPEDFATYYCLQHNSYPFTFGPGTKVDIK , thanks.
35.5

Also need H2M749N (antibody, V domains shown, also called H1M749N; H1M749) VH: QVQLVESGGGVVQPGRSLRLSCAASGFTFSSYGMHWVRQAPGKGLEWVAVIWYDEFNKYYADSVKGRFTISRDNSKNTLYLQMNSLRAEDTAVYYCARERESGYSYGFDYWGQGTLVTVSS VL: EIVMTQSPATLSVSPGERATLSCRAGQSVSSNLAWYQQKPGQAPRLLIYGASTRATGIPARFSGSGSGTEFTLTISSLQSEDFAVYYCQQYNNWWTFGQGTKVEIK , thanks.
42.9

Also need H1H693P (antibody, V domains shown) VH: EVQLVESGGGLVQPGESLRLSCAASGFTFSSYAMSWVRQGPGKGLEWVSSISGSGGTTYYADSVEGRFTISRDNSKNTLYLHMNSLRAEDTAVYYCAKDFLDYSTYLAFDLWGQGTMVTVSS VL: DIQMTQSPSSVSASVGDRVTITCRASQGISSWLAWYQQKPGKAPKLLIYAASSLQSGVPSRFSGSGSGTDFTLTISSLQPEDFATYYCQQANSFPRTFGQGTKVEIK , thanks.
37.1

Also need H1H690P (antibody, V domains shown) VH: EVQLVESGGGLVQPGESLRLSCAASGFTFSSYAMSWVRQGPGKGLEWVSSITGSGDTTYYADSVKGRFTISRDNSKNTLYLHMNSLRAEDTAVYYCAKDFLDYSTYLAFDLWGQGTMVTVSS VL: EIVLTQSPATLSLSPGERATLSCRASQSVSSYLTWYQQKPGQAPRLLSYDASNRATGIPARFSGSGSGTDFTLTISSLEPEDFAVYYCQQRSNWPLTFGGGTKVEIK , thanks.
126

Also need H1H750N (antibody, V domains shown) VH: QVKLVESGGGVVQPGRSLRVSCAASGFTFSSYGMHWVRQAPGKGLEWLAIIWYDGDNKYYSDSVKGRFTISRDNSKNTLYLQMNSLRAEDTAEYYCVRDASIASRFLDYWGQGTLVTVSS VL: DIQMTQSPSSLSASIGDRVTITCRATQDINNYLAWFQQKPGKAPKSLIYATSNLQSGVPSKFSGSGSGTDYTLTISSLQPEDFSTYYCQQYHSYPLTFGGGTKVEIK , thanks.
127
